# assaySystem: human PRMT8 (Homo sapiens, UniProt Q9NR22)
# Sequence (Q9NR22 whole entry): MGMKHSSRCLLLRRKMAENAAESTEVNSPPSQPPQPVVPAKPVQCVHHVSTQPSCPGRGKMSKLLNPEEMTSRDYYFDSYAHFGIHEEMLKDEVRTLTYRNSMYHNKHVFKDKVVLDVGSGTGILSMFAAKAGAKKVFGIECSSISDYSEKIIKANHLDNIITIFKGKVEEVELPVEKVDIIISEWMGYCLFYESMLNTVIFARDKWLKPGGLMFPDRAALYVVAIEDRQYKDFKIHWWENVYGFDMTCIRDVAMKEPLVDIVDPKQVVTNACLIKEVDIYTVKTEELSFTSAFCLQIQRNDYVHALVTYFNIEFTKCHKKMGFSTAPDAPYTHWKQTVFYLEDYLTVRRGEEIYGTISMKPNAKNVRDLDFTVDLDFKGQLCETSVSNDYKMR
# assayExplanation: PRMT8 Biochemical Assay (3H-SAM Flashplate, peptide substrate)
# testSettings: single experiment or average of multiple experiments
pIC50: −log10 of the molar value.
observable: pIC50

{"columns": ["compound", "observable", "recordedNumber"],
 "data": [
  ["CNCCN(C)Cc1c[nH]nc1-c1ccccc1NS(C)(=O)=O [Compound 41]", "pIC50", 4.40],
  ["CN(CCN)Cc1c[nH]nc1-c1ccc(Cl)cc1F [Compound 132]", "pIC50", 6.44],
  ["CNCCN(C)Cc1c[nH]nc1-c1ccc(OCC2CCOC2)cc1 (stereo not shown) [Compound 285]", "pIC50", 7.16],
  ["CN(CCN)Cc1c[nH]nc1-c1ccccc1F [Compound 72]", "pIC50", 5.43],
  ["CN(CCN)Cc1c[nH]nc1-c1ccc(Oc2ccc(F)cc2)cc1 [Compound 225]", "pIC50", 7.45],
  ["CNCCN(C)Cc1cnn(C)c1-c1ccc(F)cc1 [Compound 10]", "pIC50", 6.16],
  ["CN(CCN)Cc1c[nH]nc1-c1ccc(C(F)(F)F)cc1 [Compound 92]", "pIC50", 6.82],
  ["CN(CCN)Cc1c[nH]nc1-c1ccc(OCCO)cc1 [Compound 194]", "pIC50", 6.43],
  ["CN(CCN)Cc1n[nH]cc1-c1ccc(C(F)(F)F)cc1 [Compound 103]", "pIC50", 6.44],
  ["CNCCN(C)Cc1c[nH]nc1-c1ccc(Cl)c(F)c1 [Compound 182]", "pIC50", 6.57]
]}

The measured values listed here are drawn from patent US9776972B2.
